Data provenance is ChEMBL document CHEMBL4043070.

Reported fold change (FC) values are given for each entry in this list.
test: Reversal of multidrug resistance in human MCF7/DX cells assessed as potentiation doxorubicin-induced cytotoxicity by measuring reduction in doxorubicin IC50 level at 30 uM incubated for 48 hrs by MTT assay relative to untreated control; format: functional
Lab note: record just the number, no unit beside it.

Incoming: Dear colleague, please send me the reported fold change (FC) for CC(C)C[C@H]1C[C@]2(CC[C@]3(C(C)C)C[C@H]23)OC2=C1C(=O)C(C)(C)C(=O)C2(C)C when you can.
Outgoing: 5.6

Incoming: Dear colleague, please send me the reported fold change (FC) for CC(C)C[C@@H]1C[C@@]2(CC[C@]3(C(C)C)C[C@H]23)OC2=C1C(=O)C(C)(C)C(=O)C2(C)C when you can.
Outgoing: 4.5

Incoming: Dear colleague, please send me the reported fold change (FC) for C=C[C@@]1(CCC=C(C)C)C[C@H](CC(C)C)C2=C(O1)C(C)(C)C(=O)C(C)(C)C2=O when you can.
Outgoing: 10.1

Incoming: Dear colleague, please send me the reported fold change (FC) for CC(C)C[C@@H]1C[C@]2(CC[C@]3(C(C)C)C[C@H]23)OC2=C1C(=O)C(C)(C)C(=O)C2(C)C when you can.
Outgoing: 1.2
